All values here come from patent US20220056125A1.

Biological target: T1, human PAR-2 (human, UniProt P55085 26-397)
T1 sequence: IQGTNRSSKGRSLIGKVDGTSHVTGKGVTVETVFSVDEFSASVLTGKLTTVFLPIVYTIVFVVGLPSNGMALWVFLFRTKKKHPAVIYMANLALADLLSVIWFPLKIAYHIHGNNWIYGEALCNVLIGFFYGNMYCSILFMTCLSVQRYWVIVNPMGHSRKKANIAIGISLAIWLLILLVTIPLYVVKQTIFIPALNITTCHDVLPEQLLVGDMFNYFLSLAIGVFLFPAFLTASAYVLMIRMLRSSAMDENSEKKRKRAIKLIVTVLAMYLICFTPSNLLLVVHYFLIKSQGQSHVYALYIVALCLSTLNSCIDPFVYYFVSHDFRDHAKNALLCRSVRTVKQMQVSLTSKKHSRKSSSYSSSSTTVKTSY
Experiment: cell-based or functional assay
parameter.measured: PAR-2 β-arrestin cell based assay IC50, 2 µM SLIGKV (nM)

1) P24E279 (antibody, human IgG4 S228P, kappa, V domains shown) VH: QVQLVQSGAEVKKPGSSVKVSCKASGFSLSSYGVIWVRQAPGQGLEWMGVIWGNGNTYYAQKFQGRVTITADESTSTAYMELSSLRSEDTAVYYCARWRGYKDYPFDYWGQGTLVTVSS VL: EIVLTQSPATLSLSPGERATLSCRASQNIYKYLDWYQQKPGQAPRLLIYNTNSLATGIPARFSGSGSGRDFTLTISSLEPEDFAVYYCLQHNSGWTFGGGTKVEIKR	2.8
2) P24E280 (antibody, human IgG4 S228P, kappa, V domains shown) VH: QVQLVQSGAEVKKPGSSVKVSCKASGFSLSSYGVIWVRQAPGQGLEWMGVIWGNGNTYYAQKFQGRVTITADESTSTAYMELSSLRSEDTAVYYCARWRGYKDYPFDYWGQGTLVTVSS VL: EIVLTQSPATLSLSPGERATLSCKASQNVYKYLDWYQQKPGQAPRLLIYNTNSLATGIPARFSGSGSGRDFTLTISSLEPEDFAVYYCLQHNSGWTFGGGTKVEIKR	1.9
